ASSAY METHOD TEXT: NCI Yeast Anticancer Drug Screen. Data for the rad50 strain (AID 155);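 further: 0% = growth of vehicle-only cultures of the same strain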
CONDITIONS USED: S. cerevisiae rad50 strain growth inhibition; at 50.0 µM; active compounds read high
The panel holds about 79,000 compounds, 15% with a hit somewhere; the sample as a whole holds those more often.
// FALSE strictly below 80% in growth inhibition; TRUE otherwise

CC(CN(C)C)C(=O)/C=C/c1c(Cl)cccc1Cl (stereo not drawn)
TRUE
OC(CC(CC(O)(C(F)(F)F)C(F)(F)F)=NN=C(CC(O)(C(F)(F)F)C(F)(F)F)CC(O)(C(F)(F)F)C(F)(F)F)(C(F)(F)F)C(F)(F)F
TRUE
C[n+]1cccc2c1-c1ccccc1C2=O
FALSE
O=C(Nc1ccccc1)c1cccc2ccccc12
FALSE
CCN1/C(=C\c2cc(C)nc(-c3ccccc3)[n+]2C)C=Cc2ccccc21
TRUE
Nc1c(NCc2ccccc2)ccc2ncccc12
TRUE
C=CC(=O)N1C/C(=C\c2ccc(F)cc2)C(=O)/C(=C/c2ccc(F)cc2)C1
FALSE
C=CCC1(OC(C)=O)CC2C(=O)C(=O)C(C1)N2OC(=O)c1ccccc1 (stereo not drawn)
TRUE
C=CS(=O)(=O)c1ccc([N+](=O)[O-])cc1
TRUE
O=C1CN(CCN2CCOCC2)CC(=O)N2Cc3ccccc3CN12
FALSE

We now examine a further compound.
Q: Test whether the compound COC(=O)Nc1nc2ccc(CCC(=O)c3c(C)oc(C)c3-c3ccc(NC(C)=O)cc3)cc2[nH]1 records growth inhibition of 80% or higher.
A: FALSE

---

ASSAY METHOD TEXT: NCI Yeast Anticancer Drug Screen. Data for the sgs1 mgt1 strain (AID 161);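 further: 0% = growth of cultures given vehicle only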
CONDITIONS USED: S. cerevisiae sgs1 mgt1 strain, at 50.0 µM
About 79,000 compounds went through this panel and 15% of them were active in at least one assay; those are over-represented in the sample as a whole. Calls of active or inactive are those of the source. Cut-off read from the data, not from the text of the source: active = growth inhibition above about 70%; inactive = the rest.
Parameter call: string, one of active, inactive

The following molecules have reported results that may help.
CC1(c2ccc(F)cc2)OC(=O)c2c1ccc1ccccc21 (centres undefined)
inactive
CC(C)N(C(=O)C12C3C4C5(C#N)C3C1(C#N)C5C42I)C(C)C (centres undefined)
inactive

Q: Can you look up the reported call for COC1=C(Br)C(=O)N/C1=C(\OC)c1ccccc1 for me?
A: inactive

Q: Can you look up the reported call for FC(F)(F)C(F)(F)C1(F)C(F)(F)C(F)(F)C(F)(F)C(F)(F)C1(F)F for me?
A: active

---

Consider the following compounds and their measured growth inhibition readings.
ASSAY METHOD TEXT: NCI Yeast Anticancer Drug Screen. Data for the mlh1 rad18 strain (AID 175)
CONDITIONS USED: S. cerevisiae mlh1 rad18 strain growth inhibition; at 5.0 µM (retest, dose inferred, filed as 0.5); active compounds read high
The panel holds about 79,000 compounds, 15% with a hit somewhere; the sample as a whole holds those more often.
// return numeric value only (unit: %, not printed)

compound O=[N+]([O-])c1ccc(Sc2ccc([N+](=O)[O-])o2)o1 , growth inhibition observed: 98

compound CC(C)(C)SC(=O)C1(C)OC1c1ccc([N+](=O)[O-])cc1 (centres undefined) , growth inhibition observed: -5

compound Cc1cccc2c1nc1ccccc1[n+]2C , growth inhibition observed: 6

compound Clc1ccc(/C=N\Nc2ccccc2)c(Cl)c1 , growth inhibition observed: 1
